# assay_remarks: Dissociation constant, pKa of the compound
# Assay type: physicochemical
quantity_measured: pKa

smiles_notation | pKa
CCCCCCCCn1cc(CN[C@H]2[C@H](O)[C@@H](O)[C@H](O)[C@@H](O)[C@@H]2O)nn1 | 7.7
CCCCCCCCCn1cc(CCN[C@H]2[C@H](O)[C@@H](O)[C@H](O)[C@@H](O)[C@@H]2O)nn1 | 9.1
CCCCCCCCCCCCn1cc(CN[C@H]2[C@H](O)[C@@H](O)[C@H](O)[C@@H](O)[C@@H]2O)nn1 | 7.1
CCCCn1cc(CN[C@H]2[C@H](O)[C@@H](O)[C@H](O)[C@@H](O)[C@@H]2O)nn1 | 7.2
CCCCCCn1cc(CCCN[C@H]2[C@H](O)[C@@H](O)[C@H](O)[C@@H](O)[C@@H]2O)nn1 | 10.4
CCCOCCCCCCn1cc(CN[C@H]2[C@H](O)[C@@H](O)[C@H](O)[C@@H](O)[C@@H]2O)nn1 | 7.1
CCCCCCCCCCn1cc(CCCN[C@H]2[C@H](O)[C@@H](O)[C@H](O)[C@@H](O)[C@@H]2O)nn1 | 9.9
CCCCCCCCCCCCCCn1cc(CN[C@H]2[C@H](O)[C@@H](O)[C@H](O)[C@@H](O)[C@@H]2O)nn1 | 7.7

Prompt line: Value lookup for pKa; key = `CCCCCCCCn1cc(CCN[C@H]2[C@H](O)[C@@H](O)[C@H](O)[C@@H](O)[C@@H]2O)nn1`
Response line: 9.1

Prompt line: And for `CCCCCCCCCn1cc(CN[C@H]2[C@H](O)[C@@H](O)[C@H](O)[C@@H](O)[C@@H]2O)nn1` ?
Response line: 7.1

Prompt line: And for `O[C@@H]1[C@@H](O)[C@H](O)[C@@H](NCc2cn(CCc3ccccc3)nn2)[C@H](O)[C@H]1O` ?
Response line: 7.8

Prompt line: And for `CCCCCCCCCCn1cc(CN[C@H]2[C@H](O)[C@@H](O)[C@H](O)[C@@H](O)[C@@H]2O)nn1` ?
Response line: 7.1

Prompt line: And for `CCCCCCCCn1cc(CCCN[C@H]2[C@H](O)[C@@H](O)[C@H](O)[C@@H](O)[C@@H]2O)nn1` ?
Response line: 9.4

Prompt line: And for `CCCCCCCCCCCn1cc(CCN[C@H]2[C@H](O)[C@@H](O)[C@H](O)[C@@H](O)[C@@H]2O)nn1` ?
Response line: 9.1

* * *

Each entry below carries its recorded CC50 at 24 h.
# assay_remarks: Cytotoxicity against human fibroblast after 24 hrs by MTT assay
# Type: cell-based
# reported_conditions: human fibroblasts

smiles_notation | quantity_measured | val
CCCCCCCCCCn1cc(CCCN[C@H]2[C@H](O)[C@@H](O)[C@H](O)[C@@H](O)[C@@H]2O)nn1 | CC50 at 24 h | 170 µM
CCCCCCCCn1cc(CCCN[C@H]2[C@H](O)[C@@H](O)[C@H](O)[C@@H](O)[C@@H]2O)nn1 | CC50 at 24 h | 97 µM
CCCCCCCCCCCCn1cc(CN[C@H]2[C@H](O)[C@@H](O)[C@H](O)[C@@H](O)[C@@H]2O)nn1 | CC50 at 24 h | 55 µM

Okay, now this molecule:
Prompt line: Value lookup for CC50 at 24 h; key = `CCCCCCCCCCCCCCn1cc(CN[C@H]2[C@H](O)[C@@H](O)[C@H](O)[C@@H](O)[C@@H]2O)nn1`
Response line: 19 µM
